target.system: T1, ecMutS (Escherichia coli, UniProt P23909 1-853)
T1 sequence: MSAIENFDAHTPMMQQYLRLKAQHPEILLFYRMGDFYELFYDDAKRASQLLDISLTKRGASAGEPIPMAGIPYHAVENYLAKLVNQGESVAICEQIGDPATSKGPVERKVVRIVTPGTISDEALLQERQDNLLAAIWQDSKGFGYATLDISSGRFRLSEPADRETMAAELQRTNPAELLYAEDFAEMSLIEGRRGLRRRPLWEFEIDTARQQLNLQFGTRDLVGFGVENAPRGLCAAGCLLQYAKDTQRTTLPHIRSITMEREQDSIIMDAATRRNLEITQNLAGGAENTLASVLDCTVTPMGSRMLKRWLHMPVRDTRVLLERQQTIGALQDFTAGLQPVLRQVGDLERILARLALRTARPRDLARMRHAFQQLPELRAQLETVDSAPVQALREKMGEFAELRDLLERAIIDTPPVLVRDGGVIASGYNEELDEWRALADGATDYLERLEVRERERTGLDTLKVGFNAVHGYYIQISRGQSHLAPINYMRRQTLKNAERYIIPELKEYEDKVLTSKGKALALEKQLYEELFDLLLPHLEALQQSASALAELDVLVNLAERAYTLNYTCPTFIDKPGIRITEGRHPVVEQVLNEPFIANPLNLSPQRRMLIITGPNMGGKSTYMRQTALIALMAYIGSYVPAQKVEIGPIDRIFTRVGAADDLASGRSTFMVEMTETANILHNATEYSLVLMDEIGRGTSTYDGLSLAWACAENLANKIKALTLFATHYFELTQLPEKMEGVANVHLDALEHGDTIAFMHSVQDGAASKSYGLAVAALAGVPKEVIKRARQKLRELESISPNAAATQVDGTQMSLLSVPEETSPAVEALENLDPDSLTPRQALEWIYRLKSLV
procedure.text: competition; vs ds76-G/T-3', 65 nM ecMutS dimer; ecMutS: 20 mM HEPES-KOH pH 7.9, 5 mM MgCl2, 120 mM KCl, 0.5 mg/mL BSA, 1 mM ADP, 37 C 15 min, 5 nM DNA; ecMutL/ngMutL: 20 mM HEPES pH 8.0, 100 mM KCl, 0.5 mg/mL BSA, 1 mM DTT, on ice 10 min, 20 nM DNA; gels in TAE at 4 C
run.parameters: protein: recombinant; tags: N-terminal His6; chain copies: 2; label: none; three stacked parallel intramolecular G4s
measurement.label: pKi
pKi (log units): -log10 of the concentration in mol/L.

GET /value?item= G250A (unlabeled) (structured_DNA) DNA: GCCGCGGAAAGGAAGGGGAGGGGCTGGGAGGGCCCGGAGGGGGCTGGGCCGGGGACCCGGAAGGGGTCGGGACGGGGCGGGGTCCGCGCGGAGGAG &field=pKi returns 7.46

Noted for G228A (unlabeled) (structured_DNA) DNA: GCCGCGGAAAGGAAGGGGAGGGGCTGGGAGGGCCCGGAAGGGGCTGGGCCGGGGACCCGGGAGGGGTCGGGACGGGGCGGGGTCCGCGCGGAGGAG : its pKi reads 7.51

# pKi of WT (structured_DNA) DNA: GCCGCGGAAAGGAAGGGGAGGGGCTGGGAGGGCCCGGAGGGGGCTGGGCCGGGGACCCGGGAGGGGTCGGGACGGGGCGGGGTCCGCGCGGAGGAG = 7.55

Recorded result, G242,243A (unlabeled) (structured_DNA) DNA: GCCGCGGAAAGGAAGGGGAGGGGCTGGGAGGGCCCGGAGGGGGCTGGGCCGGAAACCCGGGAGGGGTCGGGACGGGGCGGGGTCCGCGCGGAGGAG , pKi: 7.60
